Test system: Hepatotoxicity
Assay: FDA HLAED, lactate dehydrogenase (LDH) increase
Details: human
# label = Fulfilled if LDH Increase - Index Value < 0.7 else Not fulfilled

| molecule | labelValue |
| --- | --- |
| CNC(=C[N+](=O)[O-])NCCSCc1csc(CN(C)C)n1 | Fulfilled |
| CC(C)(C)NC(=O)[C@H]1CC[C@H]2[C@@H]3CC[C@H]4NC(=O)C=C[C@]4(C)[C@H]3CC[C@]12C [FINASTERIDE] | Not fulfilled |
| O=C(O)CCc1nc(-c2ccccc2)c(-c2ccccc2)o1 | Fulfilled |
| C=C1/C(=C\C=C2/CCC[C@]3(C)[C@@H]([C@H](C)CCCC(C)(C)O)CC[C@@H]23)C[C@@H](O)C[C@@H]1O | Fulfilled |
| Brc1c(NC2=NCCN2)ccc2nccnc12 | Fulfilled |
| O=C(NCC(O)CO)c1c(I)c(C(=O)NCC(O)CO)c(I)c(N(CCO)C(=O)CO)c1I (stereo not drawn) | Not fulfilled |
| CCCCCCCCCC(=O)CC(=O)O[C@H]1CC[C@H]2[C@@H]3CCC4=CC(=O)CC[C@]4(C)[C@H]3CC[C@]12C [TESTOSTERONE KETOLAURATE] | Not fulfilled |

###

System: Hepatotoxicity
Assay: FDA HLAED, serum glutamic oxaloacetic transaminase (SGOT) increase
Settings: human
Overview of reported SGOT Increase - Index Value across a group of molecules:
quantity: SGOT Increase - Index Value

| molecule | valueReported |
| --- | --- |
| CO[C@@]1(NC(=O)Cc2cccs2)C(=O)N2C(C(=O)O)=C(COC(N)=O)CS[C@@H]21 | 0 |
| CNCCCC12CCC(c3ccccc31)c1ccccc12 | 0.3 |
| CC[C@@]1(O)C(=O)OCc2c1cc1n(c2=O)Cc2cc3c(CN(C)C)c(O)ccc3nc2-1 | 0 |
| CCn1cc(C(=O)O)c(=O)c2cc(F)c(N3CCNCC3)nc21 | 0 |
| CC[C@@H]1C(=O)OC[C@@H]1Cc1cncn1C | 4.6 |
| CCOC(=O)C1=C(C)NC(C)=C(C(=O)OC)C1c1cccc(Cl)c1Cl (centres undefined) | 0.3 |
| C[C@]12CC[C@@H]3c4ccc(O)cc4CC[C@H]3[C@@H]1CC[C@@H]2O | 2.8 |
| CC1(C)S[C@@H]2[C@H](NC(=O)[C@H](NC(=O)N3CCN(S(C)(=O)=O)C3=O)c3ccccc3)C(=O)N2[C@H]1C(=O)O | 0 |
| CC(C)NCC(O)COc1cccc2[nH]ccc12 (centres undefined) | 2.6 |

###

Tested on: Hepatotoxicity
Test: FDA HLAED, liver enzyme composite activity
Conditions: human
Overview of reported Composite Activity - Active across a group of molecules:
quantity: Composite Activity - Active

| molecule | valueReported |
| --- | --- |
| CN(Cc1cnc2nc(N)nc(N)c2n1)c1ccc(C(=O)N[C@@H](CCC(=O)O)C(=O)O)cc1 [METHOTREXATE] | 2 |
| CC[C@]1(O)C[C@H]2CN(CCc3c([nH]c4ccccc34)[C@@](C(=O)OC)(c3cc4c(cc3OC)N(C=O)[C@H]3[C@@](O)(C(=O)OC)[C@H](OC(C)=O)[C@]5(CC)C=CCN6CC[C@]43[C@@H]65)C2)C1 [VINCRISTINE] | 0 |
| C[C@]12CC[C@@H]3c4ccc(OC(=O)N(CCCl)CCCl)cc4CC[C@H]3[C@@H]1CC[C@@H]2O [ESTRAMUSTINE] | 1 |

###

Test system: Hepatotoxicity
Experiment: FDA HLAED, serum glutamic pyruvic transaminase (SGPT) increase
Settings: human
quantity: SGPT Increase - Index Value

| compound | studySystem | quantity | valueReported |
| --- | --- | --- | --- |
| Oc1ncnc2[nH]ncc12 | Hepatotoxicity | SGPT Increase - Index Value | 9.4 |
| CC(C(=O)O)c1ccc(-c2ccccc2)c(F)c1 (stereo not drawn) | Hepatotoxicity | SGPT Increase - Index Value | 0.9 |
| CCc1nn(CCCN2CCN(c3cccc(Cl)c3)CC2)c(=O)n1CCOc1ccccc1 | Hepatotoxicity | SGPT Increase - Index Value | 3.3 |
| CN1CC[C@]23c4c5ccc(O)c4O[C@H]2C(=O)CC[C@H]3[C@H]1C5 [HYDROMORPHONE] | Hepatotoxicity | SGPT Increase - Index Value | 0 |
| CCCCc1nc(Cl)c(CO)n1Cc1ccc(-c2ccccc2-c2nn[nH]n2)cc1 | Hepatotoxicity | SGPT Increase - Index Value | 1 |
| COc1cc([C@@H]2c3cc4c(cc3[C@H](O)[C@H]3COC(=O)[C@H]23)OCO4)cc(OC)c1OC | Hepatotoxicity | SGPT Increase - Index Value | 0 |
| CC(=O)N(CC(O)CO)c1c(I)c(C(=O)NCC(O)CO)c(I)c(C(=O)NCC(O)CO)c1I (stereo not drawn) [IOHEXOL] | Hepatotoxicity | SGPT Increase - Index Value | 0 |
| O=C1C(O)=C([C@H]2CC[C@H](c3ccc(Cl)cc3)CC2)C(=O)c2ccccc21 | Hepatotoxicity | SGPT Increase - Index Value | 18.2 |
| CN[C@H]1CC[C@@H](c2ccc(Cl)c(Cl)c2)c2ccccc21 | Hepatotoxicity | SGPT Increase - Index Value | 2.1 |
| CC(=O)O[C@H]1C(=O)[C@@]2(C)[C@H]([C@H](OC(=O)c3ccccc3)[C@]3(O)C[C@H](OC(=O)[C@H](O)[C@@H](NC(=O)c4ccccc4)c4ccccc4)C(C)=C1C3(C)C)[C@]1(OC(C)=O)CO[C@@H]1C[C@@H]2O | Hepatotoxicity | SGPT Increase - Index Value | 0.8 |
| CN1CCN2c3ncccc3Cc3ccccc3C2C1 (stereo not drawn) | Hepatotoxicity | SGPT Increase - Index Value | 6.4 |
| CCC(C)n1ncn(-c2ccc(N3CCN(c4ccc(OCC5COC(Cn6cncn6)(c6ccc(Cl)cc6Cl)O5)cc4)CC3)cc2)c1=O (stereo not drawn) | Hepatotoxicity | SGPT Increase - Index Value | 19.8 |
| Cn1nnnc1SCC1=C(C(=O)[O-])N2C(=O)[C@@H](NC(=O)[C@H](OC=O)c3ccccc3)[C@H]2SC1.[Na+] [CEFAMANDOLE NAFATE] | Hepatotoxicity | SGPT Increase - Index Value | 0 |
| CN1CCC[C@H]1c1cccnc1 | Hepatotoxicity | SGPT Increase - Index Value | 0.6 |
| CCOC(=O)CCC(=O)O[C@H]1[C@H](O[C@@H]2[C@@H](C)[C@H](O[C@H]3C[C@@](C)(OC)[C@@H](O)[C@H](C)O3)[C@@H](C)C(=O)O[C@H](CC)[C@@](C)(O)[C@H](O)[C@@H](C)C(=O)[C@H](C)C[C@@]2(C)O)O[C@H](C)C[C@@H]1N(C)C [ERYTHROMYCIN ETHYLSUCCINATE] | Hepatotoxicity | SGPT Increase - Index Value | 8.5 |
| O=C(c1ccccc1)c1ccc2n1CCC2C(=O)O (stereo not drawn) | Hepatotoxicity | SGPT Increase - Index Value | 0.6 |
| Fc1ccccc1C1=NCC(=S)N(CC(F)(F)F)c2ccc(Cl)cc21 | Hepatotoxicity | SGPT Increase - Index Value | 0 |
| C[C@@H](CN1CC(=O)NC(=O)C1)N1CC(=O)NC(=O)C1 | Hepatotoxicity | SGPT Increase - Index Value | 0 |
| CC(c1cc2ccccc2s1)N(O)C(N)=O (stereo not drawn) | Hepatotoxicity | SGPT Increase - Index Value | 65.3 |
| Cn1cc([S+](C)[O-])c(=O)c2ccc(F)cc21 (stereo not drawn) | Hepatotoxicity | SGPT Increase - Index Value | 28.3 |
| Fc1ccc([C@@H]2CCNC[C@H]2COc2ccc3c(c2)OCO3)cc1 | Hepatotoxicity | SGPT Increase - Index Value | 1 |
| N=C(N)NC(=O)Cc1c(Cl)cccc1Cl | Hepatotoxicity | SGPT Increase - Index Value | 0.3 |
| CC(C)NCC(O)c1ccc(NS(C)(=O)=O)cc1 (stereo not drawn) | Hepatotoxicity | SGPT Increase - Index Value | 0 |
| COCC1=C(C(=O)OC(C)OC(=O)OC(C)C)N2C(=O)[C@@H](NC(=O)/C(=N\OC)c3csc(N)n3)[C@H]2SC1 (stereo partly drawn) | Hepatotoxicity | SGPT Increase - Index Value | 0.8 |
| Nc1ccn(C[C@@H](CO)OCP(=O)(O)O)c(=O)n1.O.O | Hepatotoxicity | SGPT Increase - Index Value | 0 |
| CCC1=C[C@@H]2CN(C1)Cc1c([nH]c3ccccc13)[C@@](C(=O)OC)(c1cc3c(cc1OC)N(C)[C@H]1[C@@](O)(C(=O)OC)[C@H](OC(C)=O)[C@]4(CC)C=CCN5CC[C@]31[C@@H]54)C2 | Hepatotoxicity | SGPT Increase - Index Value | 1.9 |
| CO/N=C(\C(=O)N[C@@H]1C(=O)N2C(C(=O)O)=C(COC(C)=O)CS[C@H]12)c1csc(N)n1 | Hepatotoxicity | SGPT Increase - Index Value | 2 |
| NNCCc1ccccc1 | Hepatotoxicity | SGPT Increase - Index Value | 4.9 |
| CC(=O)NO [ACETOHYDROXAMIC ACID] | Hepatotoxicity | SGPT Increase - Index Value | 0 |
| CN1C(C(=O)Nc2ccccn2)=C(O)c2ccccc2S1(=O)=O | Hepatotoxicity | SGPT Increase - Index Value | 0.9 |
| CNC(=C[N+](=O)[O-])NCCSCc1ccc(CN(C)C)o1 | Hepatotoxicity | SGPT Increase - Index Value | 1 |
| C[N+](C)(C)C[C@H](O)CC(=O)[O-] | Hepatotoxicity | SGPT Increase - Index Value | 0 |
| C[C@@]12CCCCC[C@@H](Cc3ccc(O)cc31)[C@@H]2N | Hepatotoxicity | SGPT Increase - Index Value | 0 |
